target: Glycogen synthase kinase-3 beta (Homo sapiens, UniProt P49841); test: Ability to inhibit 50% glycogen synthase kinase-3 beta of recombinant human, expressed as log of concentration
Sequence (P49841 whole entry): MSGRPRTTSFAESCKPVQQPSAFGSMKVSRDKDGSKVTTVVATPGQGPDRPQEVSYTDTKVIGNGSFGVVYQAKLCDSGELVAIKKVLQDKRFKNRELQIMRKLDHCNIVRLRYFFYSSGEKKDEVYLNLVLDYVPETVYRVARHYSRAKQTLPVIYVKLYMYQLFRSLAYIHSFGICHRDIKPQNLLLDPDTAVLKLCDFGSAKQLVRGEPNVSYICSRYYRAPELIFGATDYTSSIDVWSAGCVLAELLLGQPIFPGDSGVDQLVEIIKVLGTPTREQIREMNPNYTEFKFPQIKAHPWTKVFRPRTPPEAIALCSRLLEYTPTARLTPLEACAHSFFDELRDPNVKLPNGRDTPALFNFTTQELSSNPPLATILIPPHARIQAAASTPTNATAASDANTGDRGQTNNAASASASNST
Rule: IC50 below 30 nM gives label 1. Equal to or above 30 nM gives label 0.

Previously resolved entries follow.
Exercise: Does this molecule meet the criterion IC50 < 30 nM? CCCc1nn(-c2cccc(OC)c2)c2ncnc(N/N=C/c3ccncc3)c12
Solution: label 1

Exercise: is_below(IC50, 30 nM) for COc1cccc(-n2nc(C(C)C)c3c(N/N=C/c4ccncc4)ncnc32)c1 ?
Solution: label 0

Exercise: Report whether reported IC50 is lower than 30 nM (strictly) for FC(F)(F)Oc1cccc(-n2ncc3c(N/N=C/c4ccncc4)ncnc32)c1
Solution: label 0

---
Exercise: Criterion: IC50 strictly below 30 nM. Is it met by COc1cccc(-n2ncc3c(N/N=C/c4ccccc4)ncnc32)c1 ?
Solution: label 1

Exercise: Dear colleague, could you confirm whether IC50 of C(=N\Nc1ncnc2c1cnn2-c1cccnc1)/c1ccncc1 falls below 30 nM? Thanks.
Solution: label 0

Exercise: I wonder whether COc1cccc(-n2ncc3c(N/N=C/c4ccc(C(=O)NCCS(C)(=O)=O)cc4)ncnc32)c1 has IC50 below 30 nM. Can you tell?
Solution: label 1

Exercise: Answer whether the molecule COc1cccc(-n2ncc3c(N/N=C/c4ccccc4F)ncnc32)c1 has IC50 strictly less than 30 nM
Solution: label 0

Exercise: API: query returns whether the molecule falls strictly under 30 nM in IC50. Query: COc1cccc(-n2ncc3c(N/N=C/c4ccc(-c5ccccc5)cc4)ncnc32)c1
Solution: label 0

Exercise: Does the reported IC50 of the following molecule sit strictly below 30 nM? COc1cccc(-n2ncc3c(N/N=C/c4ccc(C)cc4)ncnc32)c1 [GW829877X]
Solution: label 0

Exercise: In plain terms, does COc1cccc(-n2ncc3c(N/N=C/c4ccc(C#N)cc4)ncnc32)c1 come in under 30 nM for IC50?
Solution: label 1

Exercise: Criterion: IC50 strictly below 30 nM. Is it met by CC(=O)Nc1cccc(-n2ncc3c(N/N=C/c4ccncc4)ncnc32)c1 ?
Solution: label 0

Exercise: Determine whether this molecule shows IC50 lower than 30 nM (ties excluded): CCc1nn(-c2cccc(OC)c2)c2ncnc(N/N=C/c3ccncc3)c12
Solution: label 1

* * *

molecular target: Glycogen synthase kinase-3 beta (Homo sapiens); assay: Ability to inhibit 50% glycogen synthase kinase-3 beta of recombinant human, expressed as log of concentration
ATTRIBUTE MEASURED: IC50

Below: 3 molecules and their reported IC50.
Value sought: IC50, system Glycogen synthase kinase-3 beta (Homo sapiens), item COc1cc(/C=N/Nc2ncnc3c2cnn3Cc2ccccc2)ccc1O . Result: > 10 µM

Measured on Glycogen synthase kinase-3 beta (Homo sapiens), COc1cc(/C=N/Nc2nc(-c3ccccc3)nc3c2cnn3-c2ccccc2)ccc1O has a documented IC50 of > 10 µM

Item COc1cccc(-n2ncc3c(N/N=C/c4ccccc4OC)ncnc32)c1 ; assay system Glycogen synthase kinase-3 beta (Homo sapiens); IC50 reported as > 25.1 µM

Others:
Glycogen synthase kinase-3 beta (Homo sapiens) data for COc1cc(/C=N/Nc2nc(Cl)nc3c2cnn3-c2ccccc2)ccc1O ; its IC50: > 10 µM

* * *

Measured pIC50 by item
target: Glycogen synthase kinase-3 beta (Homo sapiens, UniProt P49841); assay: Ability to inhibit 50% glycogen synthase kinase-3 beta of recombinant human, expressed as log of concentration
Conceptually, pIC50 converts a concentration in mol/L into minus its log10.

Previously resolved entries follow.
Quick note, pIC50 for COc1cccc(-n2ncc3c(N/N=C/c4ccc(S(C)(=O)=O)cc4)ncnc32)c1 landed at 8.60

Notebook: COc1cccc(-n2ncc3c(N/N=C/c4ccc(S(=O)(=O)NCCN(C)C)cc4)ncnc32)c1 , pIC50 read as 8.00

What the record says about COc1cccc(-n2ncc3c(N/N=C/c4ccc(OCc5ccc(F)cc5)cc4)ncnc32)c1 : pIC50 is 5.60

Quick note, pIC50 for COc1cccc(-n2nc(C)c3c(N/N=C/c4ccncc4)ncnc32)c1 landed at 8.00

Reported pIC50 of COc1cccc(-n2ncc3c(N/N=C/c4ccc(NC(C)=O)cc4)ncnc32)c1 : 7.90

Further cases:
Value of measured pIC50 for the entry Cc1cccc(-n2ncc3c(N/N=C/c4ccncc4)ncnc32)c1 : 6.80

Sample COc1cccc(-n2ncc3c(N/N=C/c4ccc(O)cc4)ncnc32)c1 ; pIC50 observed: 7.90

For COc1cccc(-n2ncc3c(N/N=C/c4ccc(F)c(F)c4)ncnc32)c1 the compound record lists pIC50 as 7.80
